The measurements presented in this section are drawn from patent US11512053B2.

study.system: full-length human PRMT6 (Flag- and His-tagged) (Homo sapiens)
measurement.notes: PRMT6 Biochemical Assay (3H-SAM Flashplate, peptide substrate)
measurement.conditions: single experiment or average of multiple experiments; read-out: Biochemical IC50 PRMT6
property.name: IC50 (nM)
Give a bare numeral; the unit nM is implied.

Solved cases (3 shown):
molecule=CNCCN(C)Cc1c[nH]nc1C1CCC(C)(C)CC1 unit_name=nM measurement=24.3
molecule="CNCCN(C)Cc1c[nH]nc1C1CCC(=O)N(CCC(C)C)C1 (stereo not drawn)" unit_name=nM measurement=96.2
molecule="CNCCN(C)Cc1c[nH]nc1C1CCC(OCCOC)CC1 (stereo not drawn)" unit_name=nM measurement=108

Exercise: I have this molecule here, CNCCN(C)Cc1c[nH]nc1[C@H]1CC[C@@H](COC)CC1 , and I need its recorded IC50.
Key: 48.6

Exercise: Now consider CNCCN(C)Cc1c[nH]nc1C1CCC2(CC1)CCN(CCC(C)C)C2=O (stereo not drawn) and answer again.
Key: 65.7

Exercise: Same lookup for CNCCN(C)Cc1c[nH]nc1C1CCCC(COCCOC)C1 (stereo not drawn) , please.
Key: 57.4

###

Measured pIC50 values are reported for all entries that follow.
study.system: full-length human PRMT1 isoform 1 (GST-tagged) (Homo sapiens, UniProt Q99873)
Sequence (Q99873 with tags, fused parts or gaps): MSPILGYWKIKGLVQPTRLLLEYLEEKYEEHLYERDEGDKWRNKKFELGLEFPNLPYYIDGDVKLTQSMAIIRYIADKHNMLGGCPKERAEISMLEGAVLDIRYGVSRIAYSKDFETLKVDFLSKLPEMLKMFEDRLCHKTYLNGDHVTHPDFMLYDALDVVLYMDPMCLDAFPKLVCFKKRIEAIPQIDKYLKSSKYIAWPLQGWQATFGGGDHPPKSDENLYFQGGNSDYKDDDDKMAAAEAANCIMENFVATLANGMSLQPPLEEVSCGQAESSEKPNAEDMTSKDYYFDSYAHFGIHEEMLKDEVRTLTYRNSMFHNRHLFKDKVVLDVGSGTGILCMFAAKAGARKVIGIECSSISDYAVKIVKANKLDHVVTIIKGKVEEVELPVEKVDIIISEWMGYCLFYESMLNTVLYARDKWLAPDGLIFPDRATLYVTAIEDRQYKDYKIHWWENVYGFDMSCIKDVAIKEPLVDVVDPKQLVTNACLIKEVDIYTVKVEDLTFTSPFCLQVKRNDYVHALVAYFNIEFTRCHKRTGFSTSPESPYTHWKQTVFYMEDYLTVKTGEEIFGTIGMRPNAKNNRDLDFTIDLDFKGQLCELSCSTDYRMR
measurement.notes: PRMT1 Biochemical Assay (3H-SAM Flashplate, peptide substrate)
measurement.conditions: single experiment or average of multiple experiments
pIC50 field: float, defined as -log10 of concentration (mol/L).

Sample records with pIC50:
compound="CNCCN(C)Cc1c[nH]nc1C1CCCC(COCCOC)C1 (centres unmarked)" measurement=7.72
compound="CNCCN(C)Cc1c[nH]nc1C1CCC2(CC1)CCN(CCC(C)C)C2=O (centres unmarked)" measurement=7.76
compound="CNCCN(C)Cc1c[nH]nc1C1CCC2(CCCC2)OC1 (centres unmarked)" measurement=7.77
compound="CNCCN(C)Cc1c[nH]nc1C1CCC2(CC1)CC(=O)N(Cc1ccc(OC)cc1)C2 (centres unmarked)" measurement=7.85

Continue with the next compound.
Exercise: What value of pIC50 has been recorded for this entry: CCN(C(=O)CCC(C)C)[C@H]1CC[C@H](c2n[nH]cc2CN(C)CCNC)CC1
Key: 7.62

###

pIC50 by entry:
study.system: full-length human PRMT8 isoform 1 (Homo sapiens, UniProt Q9NR22)
Sequence (Q9NR22 whole entry, canonical isoform): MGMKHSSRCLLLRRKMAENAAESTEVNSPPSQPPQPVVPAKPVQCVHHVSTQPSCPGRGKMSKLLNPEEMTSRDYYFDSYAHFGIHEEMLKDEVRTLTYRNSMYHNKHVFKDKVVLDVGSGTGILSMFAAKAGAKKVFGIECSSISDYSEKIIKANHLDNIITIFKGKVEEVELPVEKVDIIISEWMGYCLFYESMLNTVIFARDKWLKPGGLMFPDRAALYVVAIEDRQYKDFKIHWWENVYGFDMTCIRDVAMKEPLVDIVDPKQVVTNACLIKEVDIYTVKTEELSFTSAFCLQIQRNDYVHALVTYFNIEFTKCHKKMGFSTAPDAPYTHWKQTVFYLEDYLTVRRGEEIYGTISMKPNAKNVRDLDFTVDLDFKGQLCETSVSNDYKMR
measurement.notes: PRMT8 Biochemical Assay (3H-SAM Flashplate, peptide substrate)
measurement.conditions: read-out: Biochemical IC50 PRMT8
pIC50: −log10 of the molar value. Where a name gives a salt, the structure may show the parent alone.

compound=CN(CCN)Cc1c[nH]nc1[C@H]1CC[C@]2(CC1)CC(C)(C)CO2 measurement="> 7.00"
compound="CNCCN(C)Cc1c[nH]nc1C1CCC(C)(C)[C@H](C(=O)NCCOC)C1 (stereo partly shown)" measurement="6.00 to 7.00"
compound=CNCCN(C)Cc1c[nH]nc1[C@H]1CC[C@@H](C(=O)NCCC(C)C)CC1 measurement="> 7.00"
compound="CNCCN(C)Cc1ccnn1C1CCC2(CCCC2)CC1 [Compound 275, trifluoroacetate]" measurement="> 7.00"
compound="CNCCN(C)Cc1c[nH]nc1C1CCC2(CC1)CCN(CC(C)C)C2=O (stereo not shown)" measurement="> 7.00"
compound=CNCCN(C)Cc1c[nH]nc1[C@H]1CC[C@H](N(CCOC)C(=O)CC(C)C)CC1 measurement="> 7.00"

Exercise: Param item = CNCCN(C)Cc1c[nH]nc1C1CCC(C)(C)[C@H](OCC2CCOCC2)C1 (stereo partly shown) ; retrieve measured pIC50.
Key: > 7.00

Exercise: Now consider CCN(C(=O)CC1CCOCC1)[C@H]1CC[C@@H](c2n[nH]cc2CN(C)CCNC)CC1 .
Key: 6.00 to 7.00

Exercise: Entry CNCCN(C)Cc1c[nH]nc1[C@H]1CC[C@H](N(CCC(C)C)C(=O)CCCOC)CC1 please
Key: > 7.00

Exercise: Input CNCCN(C)Cc1c[nH]nc1C1CCC(C)(C)C(C(=O)NCCC(C)C)C1 (stereo not shown)
Key: > 7.00

Exercise: Field entry: CCN(C(=O)CCOc1ccccc1)[C@H]1CC[C@H](c2n[nH]cc2CN(C)CCNC)CC1
Key: > 7.00

Exercise: // same read-out, input: CNCCN(C)Cc1c[nH]nc1[C@H]1CC[C@]2(CCN(Cc3ccc(OCCOC)cc3)C2=O)CC1
Key: > 7.00

Exercise: Cool, now CNCCN(C)Cc1c[nH]nc1[C@H]1CC[C@@]2(CCOC2)CC1
Key: > 7.00

###

study.system: full-length human PRMT3 isoform 1 (GST-tagged) (Homo sapiens, UniProt O60678)
Construct: GST-tagged PRMT3; made in house; host or cells: E. coli BL21(DE3) Gold
Sequence (O60678 with tags, fused parts or gaps): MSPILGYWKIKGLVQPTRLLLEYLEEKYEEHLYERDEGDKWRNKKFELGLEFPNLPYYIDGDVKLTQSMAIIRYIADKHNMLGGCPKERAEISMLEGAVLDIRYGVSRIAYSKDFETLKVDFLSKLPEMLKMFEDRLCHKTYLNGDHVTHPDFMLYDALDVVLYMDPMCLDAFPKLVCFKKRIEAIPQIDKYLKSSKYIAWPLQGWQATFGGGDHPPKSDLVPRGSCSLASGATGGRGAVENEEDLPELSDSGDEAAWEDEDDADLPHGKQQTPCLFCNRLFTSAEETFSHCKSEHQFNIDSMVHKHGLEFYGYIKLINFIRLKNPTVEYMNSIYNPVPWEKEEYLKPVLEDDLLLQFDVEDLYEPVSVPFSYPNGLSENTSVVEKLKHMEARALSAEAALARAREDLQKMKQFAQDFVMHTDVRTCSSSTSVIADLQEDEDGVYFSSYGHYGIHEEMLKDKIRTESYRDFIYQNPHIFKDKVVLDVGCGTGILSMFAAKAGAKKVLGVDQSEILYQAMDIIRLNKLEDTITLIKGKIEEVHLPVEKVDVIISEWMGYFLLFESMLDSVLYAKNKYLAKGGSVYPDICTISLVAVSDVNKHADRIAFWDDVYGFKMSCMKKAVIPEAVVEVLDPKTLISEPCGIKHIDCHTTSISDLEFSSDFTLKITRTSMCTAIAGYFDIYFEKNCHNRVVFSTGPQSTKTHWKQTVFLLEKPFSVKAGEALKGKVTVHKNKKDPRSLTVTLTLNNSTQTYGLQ
measurement.notes: PRMT3 Biochemical Assay (3H-SAM Flashplate, peptide substrate)
measurement.conditions: single experiment or average of multiple experiments
property.name: pIC50
Scale: negative log10 of molar concentration, which is what pIC50 denotes.

compound="CN(CCN)Cc1c[nH]nc1/C=C/c1cc(F)cc(F)c1 [Compound 15]" study_system="full-length human PRMT3 isoform 1 (GST-tagged) (Homo sapiens, UniProt O60678)" property_name=pIC50 measurement=5.63
compound="CN(CCN)Cc1c[nH]nc1/C=C/c1cccc(C(F)(F)F)c1 [Compound 16]" study_system="full-length human PRMT3 isoform 1 (GST-tagged) (Homo sapiens, UniProt O60678)" property_name=pIC50 measurement=5.24

Exercise: # lookup: pIC50 of CN(CCN)Cc1c[nH]nc1/C=C/c1ccc(C(F)(F)F)cc1 [Compound 18]
Key: 5.76

###

study.system: full-length human PRMT6 (Flag- and His-tagged) (Homo sapiens, UniProt Q96LA8)
Sequence (Q96LA8 with tags, fused parts or gaps): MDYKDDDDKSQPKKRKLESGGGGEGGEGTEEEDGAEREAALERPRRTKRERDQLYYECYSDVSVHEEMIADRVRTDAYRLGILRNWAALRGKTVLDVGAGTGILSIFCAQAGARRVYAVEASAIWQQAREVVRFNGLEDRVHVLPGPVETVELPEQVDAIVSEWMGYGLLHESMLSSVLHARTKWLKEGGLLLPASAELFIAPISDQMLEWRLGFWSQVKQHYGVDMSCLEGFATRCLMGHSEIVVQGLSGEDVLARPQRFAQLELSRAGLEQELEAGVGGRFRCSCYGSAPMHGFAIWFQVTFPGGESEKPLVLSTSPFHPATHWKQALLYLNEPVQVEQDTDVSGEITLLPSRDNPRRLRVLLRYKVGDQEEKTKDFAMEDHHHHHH
measurement.notes: PRMT6 Biochemical Assay (3H-SAM Flashplate, peptide substrate)
measurement.conditions: single experiment or average of multiple experiments; read-out: Biochemical IC50 PRMT6
Counter-ions that a name gives are not always drawn.
Catalogue of log10 of IC50 readings, one per entry.
The base-10 logarithm of IC50, taken with IC50 in nM, is what appears here.

Look over these answered cases.
molecule="CNCCN(C)Cc1ccnn1C1CCC2(CCCC2)CC1 [Compound 275, trifluoroacetate]" study_system="full-length human PRMT6 (Flag- and His-tagged) (Homo sapiens, UniProt Q96LA8)" property_name="log10 of IC50" measurement=1.27
molecule="CNCCN(C)Cc1c[nH]nc1C1CCC2(CCOC2)CC1 (stereo not drawn) [Compound 54]" study_system="full-length human PRMT6 (Flag- and His-tagged) (Homo sapiens, UniProt Q96LA8)" property_name="log10 of IC50" measurement=1.58
molecule="CNCCN(C)Cc1c[nH]nc1[C@H]1CC[C@@H](N(CCOc2ccccc2)C(=O)CCOC)CC1 [Compound 218]" study_system="full-length human PRMT6 (Flag- and His-tagged) (Homo sapiens, UniProt Q96LA8)" property_name="log10 of IC50" measurement=1.48
molecule="CC(C)c1n[nH]cc1CN(C)CCN [Compound 21]" study_system="full-length human PRMT6 (Flag- and His-tagged) (Homo sapiens, UniProt Q96LA8)" property_name="log10 of IC50" measurement=2.83
molecule="CNCCN(C)Cc1c[nH]nc1C1CCC2(CCCCO2)CC1 (stereo not drawn) [Compound 137]" study_system="full-length human PRMT6 (Flag- and His-tagged) (Homo sapiens, UniProt Q96LA8)" property_name="log10 of IC50" measurement=1.37

Exercise: Endpoint output: log10 of IC50 of CN(CCN)Cc1c[nH]nc1/C=C/Cc1ccccc1 [Compound 24] . Value?
Key: 2.26

Exercise: Likewise for CNCCN(C)Cc1c[nH]nc1C1CCC(C(C)C)CC1 (stereo not drawn) [Compound 50] ?
Key: 1.31

###

Let's look at some compounds and their measured pIC50.
study.system: human CARM1 (PRMT4) (Flag- and His-tagged) (Homo sapiens)
Construct: Flag-CARM1-His; made in house; host or cells: HEK 293F cells (BacMam baculovirus)
Sequence (Q86X55 1-585 isoform Q86X55-1): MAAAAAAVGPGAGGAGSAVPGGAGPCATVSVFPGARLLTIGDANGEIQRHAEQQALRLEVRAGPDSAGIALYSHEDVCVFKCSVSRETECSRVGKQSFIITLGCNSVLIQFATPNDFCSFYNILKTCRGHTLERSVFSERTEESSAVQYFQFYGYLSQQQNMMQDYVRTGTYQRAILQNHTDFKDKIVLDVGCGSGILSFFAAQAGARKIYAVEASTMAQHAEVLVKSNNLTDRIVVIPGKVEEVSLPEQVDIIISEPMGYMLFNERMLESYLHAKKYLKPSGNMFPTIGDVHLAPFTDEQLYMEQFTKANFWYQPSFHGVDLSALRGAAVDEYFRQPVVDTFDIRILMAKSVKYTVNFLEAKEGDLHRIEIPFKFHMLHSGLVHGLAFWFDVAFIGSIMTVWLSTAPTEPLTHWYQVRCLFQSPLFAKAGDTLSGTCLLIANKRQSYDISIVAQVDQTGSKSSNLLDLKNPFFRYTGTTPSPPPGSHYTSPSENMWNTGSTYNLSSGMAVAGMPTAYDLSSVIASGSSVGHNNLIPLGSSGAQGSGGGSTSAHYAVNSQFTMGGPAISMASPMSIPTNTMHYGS
measurement.notes: CARM1 Biochemical Assay (3H-SAM Flashplate, peptide substrate)
pIC50: −log10 of the molar value.

smiles_str=CC(C)c1n[nH]cc1CN(C)CCN measurement="< 5.00"

Exercise: # returns recorded pIC50 (system: human CARM1 (PRMT4) (Flag- and His-tagged) (Homo sapiens)) for CN(CCN)Cc1c[nH]nc1CCc1ccccc1
Key: 5.52 to 6.00

Exercise: Also, CN(CCN)Cc1c[nH]nc1C1=CCOCC1 please.
Key: < 5.00

Exercise: Also, CN(CCN)Cc1c[nH]nc1C1CC1 please.
Key: < 5.00

###

study.system: full-length human PRMT6 (Flag- and His-tagged) (Homo sapiens)
measurement.notes: PRMT6 Biochemical Assay (3H-SAM Flashplate, peptide substrate)
measurement.conditions: Biochemical IC50 PRMT6, single experiment or average of multiple experiments
Counter-ions that a name gives are not always drawn.
property.name: IC50 (nM)
Record the value in nM, omitting the unit from your answer.

molecule="CCOCC1(COCC)CCC(c2n[nH]cc2CN(C)CCNC)CC1 [Compound 158, hydrochloride salt]" unit_name=nM measurement=91

Now let's try a different one.
Exercise: Which IC50 is reported for this molecule? CNCCN(C)Cc1c[nH]nc1[C@H]1CC[C@H](OCCOc2ccc(OCCOC)cc2)CC1
Key: 18.7
